Experiment: Drug concentrations in compartments of the murine FRT after IP dosing
Type: in vivo, mouse
Details: mouse, uterus; female mice, 10 mg/kg IP, 6 hr; read-out: Uterus concentration

sample.smiles	concentration at 6 hr [µM]
O=C(c1ccc(OCc2ccc(OC(F)(F)F)cc2)cc1)N1CCN(c2ccc(C(F)(F)F)cn2)CC1	6.66

* * *

Biological target: CYP1A2 (Homo sapiens, UniProt P05177)
Sequence (P05177 1-516): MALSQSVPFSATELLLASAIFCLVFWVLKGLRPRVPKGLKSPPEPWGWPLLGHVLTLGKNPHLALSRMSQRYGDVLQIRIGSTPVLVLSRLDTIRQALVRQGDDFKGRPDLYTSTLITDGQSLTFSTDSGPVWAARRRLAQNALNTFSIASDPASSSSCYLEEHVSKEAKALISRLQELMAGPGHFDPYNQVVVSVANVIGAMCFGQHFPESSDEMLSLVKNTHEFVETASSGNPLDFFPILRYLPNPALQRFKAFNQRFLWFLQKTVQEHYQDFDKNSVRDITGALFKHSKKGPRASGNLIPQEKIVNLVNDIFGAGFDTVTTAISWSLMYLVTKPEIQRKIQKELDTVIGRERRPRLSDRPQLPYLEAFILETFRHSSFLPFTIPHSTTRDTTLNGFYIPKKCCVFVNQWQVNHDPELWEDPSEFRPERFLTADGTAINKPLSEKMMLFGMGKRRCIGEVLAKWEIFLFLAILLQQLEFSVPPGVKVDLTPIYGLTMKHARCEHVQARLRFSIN
# key: entry, value: IC50
quantity.name: IC50

compound	reported.measurement
Cc1cc(Cl)cc2sc(O[C@H]3CCN(C(=O)CCCS(=O)(=O)c4cccc(Br)c4)C[C@H]3F)nc12 [VU6047606]	> 30 µM
O=C(c1ccc(OCc2ccc(OC(F)(F)F)cc2)cc1)N1CCN(c2ccc(C(F)(F)F)cn2)CC1 [VU6032735]	> 30 µM

* * *

Experiment: Distribution ratio female reproductive organs versus plasma after IV dosing
Assay type: in vivo
Details: C57Bl/6, mouse, reproductive organs / plasma, female mice, 1 mg/kg IV
Each entry below carries its recorded Kp at 0.25 h.

compound	Kp at 0.25 h
Cc1cc(Cl)cc2sc(O[C@H]3CCN(C(=O)CCCS(=O)(=O)c4cccc(Br)c4)C[C@H]3F)nc12 [VU6047606]	0.47
O=C(c1ccc(OCc2ccc(OC(F)(F)F)cc2)cc1)N1CCN(c2ccc(C(F)(F)F)cn2)CC1 [VU6032735]	12.7

* * *

Attribute: CLhep predicted at 1 μM
Test: Intrinsic clearance in liver microsomes
Type: in vitro ADME, rat
Conditions: rat, liver microsomes, pH 7.4, rat liver microsomes; read-out: Rat CLhep (in vitro hepatic clearance from microsomal CLint)
quantity.name: CLhep predicted at 1 μM (mL/min/kg)

sample.smiles	scale.unit	relation	reported.measurement
Cc1cc(Cl)cc2sc(O[C@H]3CCN(C(=O)CCCS(=O)(=O)c4cccc(Br)c4)C[C@H]3F)nc12	mL/min/kg	>	46
Cc1cc(Cl)cc2sc(O[C@H]3CCN(C(=O)CCCS(=O)(=O)c4cccc(Br)c4)C[C@@H]3F)nc12	mL/min/kg	=	62.4
Cc1cc(Cl)cc2sc(O[C@@H]3CCN(C(=O)CCCS(=O)(=O)c4cccc(Br)c4)C[C@H]3F)nc12	mL/min/kg	=	53.5
O=C(c1ccc(OCc2ccc(OC(F)(F)F)cc2)cc1)N1CCN(c2ccc(C(F)(F)F)cn2)CC1	mL/min/kg	=	16.2
Cc1cc(Cl)cc2sc(O[C@@H]3CCN(C(=O)CCCS(=O)(=O)c4cccc(Br)c4)C[C@@H]3F)nc12	mL/min/kg	=	50.5

* * *

Assay: Drug concentrations in compartments of the murine FRT after IP dosing
Assay type: in vivo, mouse
Settings: mouse, ovary; female mice, 10 mg/kg IP, 0.25 hr; read-out: Ovary concentration

compound	concentration at 0.25 hr, µM
O=C(c1ccc(OCc2ccc(OC(F)(F)F)cc2)cc1)N1CCN(c2ccc(C(F)(F)F)cn2)CC1 [VU6032735]	7.52

* * *

Recorded AUC for the following molecules
Assay: In vivo IV pharmacokinetics, rat cassette
Details: Sprague-Dawley, plasma, 0.2 mg/kg, male SD rats, 0.2 mpk IV

molecule	scale.unit	AUC
Cc1cc(Cl)cc2sc(O[C@H]3CCN(C(=O)CCCS(=O)(=O)c4cccc(Br)c4)C[C@H]3F)nc12 [VU6047606]	ng·h/mL	83.1
O=C(c1ccc(OCc2ccc(OC(F)(F)F)cc2)cc1)N1CCN(c2ccc(C(F)(F)F)cn2)CC1 [VU6032735]	ng·h/mL	114
Cc1cc(Cl)cc2sc(O[C@@H]3CCN(C(=O)CCCS(=O)(=O)c4cccc(Br)c4)C[C@@H]3F)nc12 [VU6047608]	ng·h/mL	58.8
Cc1cc(Cl)cc2sc(O[C@@H]3CCN(C(=O)CCCS(=O)(=O)c4cccc(Br)c4)C[C@H]3F)nc12 [VU6047607]	ng·h/mL	47
Cc1cc(Cl)cc2sc(O[C@H]3CCN(C(=O)CCCS(=O)(=O)c4cccc(Br)c4)C[C@@H]3F)nc12 [VU6047609]	ng·h/mL	45.2

* * *

Assay: In vivo IV pharmacokinetics, rat cassette
Conditions: Sprague-Dawley, plasma, 0.2 mg/kg, male SD rats, 0.2 mpk IV, read-out: Vss
Please note: Vd exactly at 5 L/kg is N. Only values below 5 L/kg get Y.

sample.smiles	label.value
Cc1cc(Cl)cc2sc(O[C@@H]3CCN(C(=O)CCCS(=O)(=O)c4cccc(Br)c4)C[C@H]3F)nc12	N
O=C(c1ccc(OCc2ccc(OC(F)(F)F)cc2)cc1)N1CCN(c2ccc(C(F)(F)F)cn2)CC1	Y
Cc1cc(Cl)cc2sc(O[C@H]3CCN(C(=O)CCCS(=O)(=O)c4cccc(Br)c4)C[C@@H]3F)nc12	N
Cc1cc(Cl)cc2sc(O[C@@H]3CCN(C(=O)CCCS(=O)(=O)c4cccc(Br)c4)C[C@@H]3F)nc12	N

* * *

Biological target: hERG (Homo sapiens, UniProt Q12809)
Construct: expressed in transfected cells
Sequence (Q12809 whole entry): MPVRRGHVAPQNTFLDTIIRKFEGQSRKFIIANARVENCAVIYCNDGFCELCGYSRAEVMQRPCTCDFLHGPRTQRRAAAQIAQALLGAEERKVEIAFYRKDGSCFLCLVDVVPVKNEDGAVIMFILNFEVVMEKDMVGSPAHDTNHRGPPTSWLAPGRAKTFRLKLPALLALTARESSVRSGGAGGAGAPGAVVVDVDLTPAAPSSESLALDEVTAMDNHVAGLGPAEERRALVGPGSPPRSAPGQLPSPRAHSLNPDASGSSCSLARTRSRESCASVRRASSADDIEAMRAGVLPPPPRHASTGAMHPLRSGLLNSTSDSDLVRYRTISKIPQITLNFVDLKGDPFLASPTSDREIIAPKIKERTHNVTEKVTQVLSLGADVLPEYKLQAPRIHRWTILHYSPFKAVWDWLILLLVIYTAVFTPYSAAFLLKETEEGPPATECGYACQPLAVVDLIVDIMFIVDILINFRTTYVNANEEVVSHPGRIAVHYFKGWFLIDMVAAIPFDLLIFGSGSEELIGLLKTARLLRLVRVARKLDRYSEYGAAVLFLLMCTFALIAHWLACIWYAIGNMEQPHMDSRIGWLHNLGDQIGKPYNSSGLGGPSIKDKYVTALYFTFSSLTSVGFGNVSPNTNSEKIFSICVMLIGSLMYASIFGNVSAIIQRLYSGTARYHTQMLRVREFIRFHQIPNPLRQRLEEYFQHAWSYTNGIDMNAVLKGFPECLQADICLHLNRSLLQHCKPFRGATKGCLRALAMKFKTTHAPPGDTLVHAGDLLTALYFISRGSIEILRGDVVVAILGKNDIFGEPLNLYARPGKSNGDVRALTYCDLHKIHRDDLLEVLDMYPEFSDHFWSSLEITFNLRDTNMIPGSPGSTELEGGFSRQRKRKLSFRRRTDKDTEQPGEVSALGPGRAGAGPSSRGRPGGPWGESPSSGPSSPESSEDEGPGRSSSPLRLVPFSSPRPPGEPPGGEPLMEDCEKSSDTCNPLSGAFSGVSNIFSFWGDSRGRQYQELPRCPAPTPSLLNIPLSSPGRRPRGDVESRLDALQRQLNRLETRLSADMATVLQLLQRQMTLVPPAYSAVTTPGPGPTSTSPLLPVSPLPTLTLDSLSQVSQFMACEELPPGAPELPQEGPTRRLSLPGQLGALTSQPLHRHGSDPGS
Test: hERG patch clamp electrophysiology (HEK-293-hERG)
Format: cell-based
Conditions: human, HEK-293 cells stably expressing hERG, pH 7.35; whole-cell patch clamp, HEK-293-hERG
Procedure: Whole-cell patch-clamp electrophysiology was used to record hERG currents from a stably transfected monoclonal cell line expressing human hERG. The HEK-293-hERG cell line was generously provided by Dr. David Weaver (Vanderbilt University). […] Recordings concluded with a 10 μM Quinidine solution to isolate Quinidine-sensitive currents, with compound responses expressed as fractions of this current. […]
pIC50: −log10 of the molar value.
quantity.name: pIC50

sample.smiles	reported.measurement
Cc1cc(Cl)cc2sc(O[C@H]3CCN(C(=O)CCCS(=O)(=O)c4cccc(Br)c4)C[C@H]3F)nc12	4.90

* * *

Recorded Rat CLhep, % Hepatic blood flow by entry
Test: Intrinsic clearance in liver microsomes
Assay type: in vitro ADME, rat
Details: rat liver microsomes
quantity.name: Rat CLhep, % Hepatic blood flow

sample.smiles	quantity.name	reported.measurement
Cc1cc(Cl)cc2sc(O[C@H]3CCN(C(=O)CCCS(=O)(=O)c4cccc(Br)c4)C[C@@H]3F)nc12	Rat CLhep, % Hepatic blood flow	89%
O=C(c1ccc(OCc2ccc(OC(F)(F)F)cc2)cc1)N1CCN(c2ccc(C(F)(F)F)cn2)CC1	Rat CLhep, % Hepatic blood flow	23%
Cc1cc(Cl)cc2sc(O[C@@H]3CCN(C(=O)CCCS(=O)(=O)c4cccc(Br)c4)C[C@@H]3F)nc12	Rat CLhep, % Hepatic blood flow	72%
Cc1cc(Cl)cc2sc(O[C@@H]3CCN(C(=O)CCCS(=O)(=O)c4cccc(Br)c4)C[C@H]3F)nc12	Rat CLhep, % Hepatic blood flow	76%
Cc1cc(Cl)cc2sc(O[C@H]3CCN(C(=O)CCCS(=O)(=O)c4cccc(Br)c4)C[C@H]3F)nc12	Rat CLhep, % Hepatic blood flow	71%

* * *

Assay: Distribution ratio female reproductive organs versus plasma after IV dosing
Assay type: in vivo
Conditions: C57Bl/6, mouse, plasma, female mice, 1 mg/kg IV, read-out: Plasma concentration
// values below are reported concentration at 0.25 h

compound	concentration at 0.25 h / ng/mL
O=C(c1ccc(OCc2ccc(OC(F)(F)F)cc2)cc1)N1CCN(c2ccc(C(F)(F)F)cn2)CC1 [VU6032735]	85.3
Cc1cc(Cl)cc2sc(O[C@H]3CCN(C(=O)CCCS(=O)(=O)c4cccc(Br)c4)C[C@H]3F)nc12 [VU6047606]	121

* * *

Assay: Drug concentrations in compartments of the murine FRT after IP dosing
Format: in vivo, mouse
Settings: mouse, oviduct; female mice, 10 mg/kg IP, 3 hr; read-out: Oviduct concentration
quantity.name: concentration at 3 hr (µM)

sample.smiles	quantity.name	reported.measurement
O=C(c1ccc(OCc2ccc(OC(F)(F)F)cc2)cc1)N1CCN(c2ccc(C(F)(F)F)cn2)CC1	concentration at 3 hr	93.6
